Source: patent US7902327B2

Where a SMILES comes first, the peptide text is derived from it. Side-chain parts run from the residue outwards. [ ]: non-standard residue; d: D form. The star is where a group is joined. Lys(α,ε-(ArgTrp)2) = N=C(N)NCCC[C@H](N)C(=O)N[C@@H](Cc1c[nH]c2ccccc12)C(=O)NCCCC[C@H](NC(=O)[C@H](Cc1c[nH]c2ccccc12)NC(=O)[C@@H](N)CCCNC(=N)N)C(=O)*; X1 = CCCCCCCCCN*; βAla = NCCC(=O)O
Endpoint: MIC50 A. baumannii. System: Acinetobacter. baumannii (ATCC BAA-747). Items follow.
Readout: MIC50 A. baumannii (µg/mL)

{"columns": ["Compound", "Readout", "Value measured"],
 "data": [
  ["NC(=O)CCNC(=O)[C@H](CCCCNC(=O)[C@H](CCCCNC(=O)[C@H](Cc1c[nH]c2ccccc12)NC(=O)[C@@H](N)Cc1c[nH]cn1)NC(=O)[C@H](Cc1c[nH]c2ccccc12)NC(=O)[C@@H](N)Cc1c[nH]cn1)NC(=O)[C@H](CCCCNC(=O)[C@H](Cc1c[nH]c2ccccc12)NC(=O)[C@@H](N)Cc1c[nH]cn1)NC(=O)[C@H](Cc1c[nH]c2ccccc12)NC(=O)[C@@H](N)Cc1c[nH]cn1 [Den(HW)4D]", "MIC50 A. baumannii", 82.7],
  ["NCCCC[C@H](N)C(=O)N[C@@H](Cc1ccccc1)C(=O)NCCCC[C@H](NC(=O)[C@H](Cc1ccccc1)NC(=O)[C@@H](N)CCCCN)C(=O)NCCCC[C@H](NC(=O)[C@H](CCCCNC(=O)[C@H](Cc1ccccc1)NC(=O)[C@@H](N)CCCCN)NC(=O)[C@H](Cc1ccccc1)NC(=O)[C@@H](N)CCCCN)C(=O)NCCC(N)=O [Den(KF)4D]", "MIC50 A. baumannii", 175],
  ["CCCCCCCCCNC(=O)CCNC(=O)[C@H](CCCCNC(=O)[C@H](CCCCNC(=O)[C@H](Cc1c[nH]c2ccccc12)NC(=O)[C@@H](N)CCCNC(=N)N)NC(=O)[C@H](Cc1c[nH]c2ccccc12)NC(=O)[C@@H](N)CCCNC(=N)N)NC(=O)[C@H](CCCCNC(=O)[C@H](Cc1c[nH]c2ccccc12)NC(=O)[C@@H](N)CCCNC(=N)N)NC(=O)[C@H](Cc1c[nH]c2ccccc12)NC(=O)[C@@H](N)CCCNC(=N)N [(RW)4D-Nonylamine] (H-RWK([Trp-Arg])K(Lys(α,ε-(ArgTrp)2))[βAla]-X1)", "MIC50 A. baumannii", 75.2]
]}

###

# Assay type: cell-based, mouse
Where a SMILES comes first, the peptide text is derived from it. Side-chain parts run from the residue outwards. [ ]: non-standard residue; d: D form. The star is where a group is joined. Lys(α,ε-(ArgTrp)2) = N=C(N)NCCC[C@H](N)C(=O)N[C@@H](Cc1c[nH]c2ccccc12)C(=O)NCCCC[C@H](NC(=O)[C@H](Cc1c[nH]c2ccccc12)NC(=O)[C@@H](N)CCCNC(=N)N)C(=O)*; βAla = NCCC(=O)O

{"columns": ["Compound", "IC50"],
 "data": [
  ["N=C(N)NCCC[C@H](N)C(=O)N[C@@H](Cc1c[nH]c2ccccc12)C(=O)NCCCC[C@H](NC(=O)[C@H](Cc1c[nH]c2ccccc12)NC(=O)[C@@H](N)CCCNC(=N)N)C(=O)NCCCC[C@H](NC(=O)[C@H](CCCCNC(=O)[C@H](Cc1c[nH]c2ccccc12)NC(=O)[C@@H](N)CCCNC(=N)N)NC(=O)[C@H](Cc1c[nH]c2ccccc12)NC(=O)[C@@H](N)CCCNC(=N)N)C(=O)NCCC(N)=O [Den(RW)4D] (H-RWK([Trp-Arg])K(Lys(α,ε-(ArgTrp)2))[βAla]-NH2)", "~1380 µg/mL"]
]}
